compounds and their reported solubility
Test: Water solubility of freeze-dried compounds in water (observation and HPLC)
Residues, ends and D or L forms follow the SMILES beside them. *: point of attachment. Doxorubicin(3'-N) = COc1cccc2c1C(=O)c1c(O)c3c(c(O)c1C2=O)C[C@@](O)(C(=O)CO)C[C@@H]3O[C@H]1C[C@H](N*)[C@H](O)[C@H](C)O1; Hexanoyl(6-maleimido) = O=C1C=CC(=O)N1CCCCCC(=O)*; X2 = O=C1C=CC(=O)N1CCOCCOCCC(=O)*
reportedEndpoint: solubility

compound	valueReported
CC[C@H](C)[C@H](NC(=O)CCCCCN1C(=O)C=CC1=O)C(=O)N[C@@H](C)C(=O)N[C@@H](C)C(=O)N[C@@H](CC(N)=O)C(=O)N[C@@H](CC(C)C)C(=O)N[C@H]1C[C@H](O[C@H]2C[C@](O)(C(=O)CO)Cc3c(O)c4c(c(O)c32)C(=O)c2c(OC)cccc2C4=O)O[C@@H](C)[C@H]1O [QHL-125] ({Hexanoyl(6-maleimido)}-IAANL-{Doxorubicin(3'-N)})	> 2 mg/mL
COc1cccc2c1C(=O)c1c(O)c3c(c(O)c1C2=O)C[C@@](O)(C(=O)CO)C[C@@H]3O[C@H]1C[C@H](NC(=O)[C@H](CC(C)C)NC(=O)[C@H](CC(N)=O)NC(=O)[C@H](C)NC(=O)[C@H](C)NC(=O)[C@H](CC(=O)O)NC(=O)CCOCCOCCN2C(=O)C=CC2=O)[C@H](O)[C@H](C)O1 [QHL-033] (X2-DAANL-{Doxorubicin(3'-N)})	> 20 mg/mL

---

Experiment: Water solubility of freeze-dried compounds in water (observation and HPLC)
Residues, ends and D or L forms follow the SMILES beside them. *: point of attachment. Doxorubicin(3'-N) = COc1cccc2c1C(=O)c1c(O)c3c(c(O)c1C2=O)C[C@@](O)(C(=O)CO)C[C@@H]3O[C@H]1C[C@H](N*)[C@H](O)[C@H](C)O1; Hexanoyl(6-maleimido) = O=C1C=CC(=O)N1CCCCCC(=O)*; Propanoyl(3-maleimido) = O=C1C=CC(=O)N1CCC(=O)*; PEG4 = NCCOCCOCCOCCOCCC(=O)O
compounds and their reported solubility

compound	solubility
COc1cccc2c1C(=O)c1c(O)c3c(c(O)c1C2=O)C[C@@](O)(C(=O)CO)C[C@@H]3O[C@H]1C[C@H](NC(=O)[C@H](CC(C)C)NC(=O)[C@H](CC(N)=O)NC(=O)[C@H](C)NC(=O)[C@H](C)NC(=O)[C@H](CC(=O)O)NC(=O)CCOCCOCCOCCOCCNC(=O)CCN2C(=O)C=CC2=O)[C@H](O)[C@H](C)O1 [QHL-054] ({Propanoyl(3-maleimido)-PEG4}-DAANL-{Doxorubicin(3'-N)})	> 25 mg/mL
COc1cccc2c1C(=O)c1c(O)c3c(c(O)c1C2=O)C[C@@](O)(C(=O)CO)C[C@@H]3O[C@H]1C[C@H](NC(=O)[C@H](CC(C)C)NC(=O)[C@H](CC(N)=O)NC(=O)[C@H](C)NC(=O)[C@H](C)NC(=O)[C@@H](NC(=O)CCCCCN2C(=O)C=CC2=O)[C@@H](C)O)[C@H](O)[C@H](C)O1 [QHL-130] ({Hexanoyl(6-maleimido)}-TAANL-{Doxorubicin(3'-N)})	> 2 mg/mL

---

Experiment: Water solubility of freeze-dried compounds in water (observation and HPLC)
Residues, ends and D or L forms follow the SMILES beside them. *: point of attachment. Doxorubicin(3'-N) = COc1cccc2c1C(=O)c1c(O)c3c(c(O)c1C2=O)C[C@@](O)(C(=O)CO)C[C@@H]3O[C@H]1C[C@H](N*)[C@H](O)[C@H](C)O1; MaleimidoPEG4propanoyl = O=C1C=CC(=O)N1CCOCCOCCOCCOCCC(=O)*; Hexanoyl(6-maleimido) = O=C1C=CC(=O)N1CCCCCC(=O)*; Butanoyl(4-maleimido) = O=C1C=CC(=O)N1CCCC(=O)*; PEG6 = NCCOCCOCCOCCOCCOCCOCCC(=O)O
compounds and their reported solubility

compound	solubility
COc1cccc2c1C(=O)c1c(O)c3c(c(O)c1C2=O)C[C@@](O)(C(=O)CO)C[C@@H]3O[C@H]1C[C@H](NC(=O)[C@H](CC(C)C)NC(=O)[C@H](CC(N)=O)NC(=O)[C@H](C)NC(=O)[C@H](C)NC(=O)[C@H](CC(=O)O)NC(=O)CCOCCOCCOCCOCCOCCOCCNC(=O)CCCN2C(=O)C=CC2=O)[C@H](O)[C@H](C)O1 [QHL-084] ({Butanoyl(4-maleimido)-PEG6}-DAANL-{Doxorubicin(3'-N)})	> 30 mg/mL
COc1cccc2c1C(=O)c1c(O)c3c(c(O)c1C2=O)C[C@@](O)(C(=O)CO)C[C@@H]3O[C@H]1C[C@H](NC(=O)[C@H](CC(C)C)NC(=O)[C@H](CC(N)=O)NC(=O)[C@H](C)NC(=O)[C@H](C)NC(=O)[C@H](CCC(=O)O)NC(=O)CCOCCOCCOCCOCCN2C(=O)C=CC2=O)[C@H](O)[C@H](C)O1 [QHL-023] (MaleimidoPEG4propanoyl-EAANL-{Doxorubicin(3'-N)})	> 25 mg/mL
COc1cccc2c1C(=O)c1c(O)c3c(c(O)c1C2=O)C[C@@](O)(C(=O)CO)C[C@@H]3O[C@H]1C[C@H](NC(=O)[C@H](CC(C)C)NC(=O)[C@H](CC(N)=O)NC(=O)[C@H](C)NC(=O)[C@H](C)NC(=O)CNC(=O)CCCCCN2C(=O)C=CC2=O)[C@H](O)[C@H](C)O1 [QHL-121] ({Hexanoyl(6-maleimido)}-GAANL-{Doxorubicin(3'-N)})	> 10 mg/mL
COc1cccc2c1C(=O)c1c(O)c3c(c(O)c1C2=O)C[C@@](O)(C(=O)CO)C[C@@H]3O[C@H]1C[C@H](NC(=O)[C@H](CC(C)C)NC(=O)[C@H](CC(N)=O)NC(=O)[C@H](C)NC(=O)[C@H](C)NC(=O)[C@H](CCSC)NC(=O)CCCCCN2C(=O)C=CC2=O)[C@H](O)[C@H](C)O1 [QHL-126] ({Hexanoyl(6-maleimido)}-MAANL-{Doxorubicin(3'-N)})	> 2 mg/mL
